- test_description: In vivo MTD in CD-1 mice
- assay_setup: mouse, male CD-1 mice, 5 daily doses, unit inferred, read-out: Male CD-1 mice MTD 5DD
- Procedure: The Maximum Tolerated Dose is determined in CD-1 and athymic mice (both genders) for each drug after single bolus administration and after 5 dayly doses. The results are given in table IV, there is no significant difference between the compounds 5 methylhexanoic KF and (4S)-methylhexanoic KF.
test_readout: MTD at 5 days

C/C=C1\NC(=O)[C@H](Cc2ccccc2)NC(=O)[C@@H](C(C)C)NC(=O)[C@@H]([C@@H](C)CC)NC(=O)[C@H](NC(=O)[C@H](NC(=O)[C@H](CCCN)NC(=O)[C@H]2CCCN2C(=O)[C@H](NC(=O)[C@@H](NC(=O)[C@@H](NC(=O)[C@H](NC(=O)CC[C@@H](C)CC)C(C)C)[C@@H](C)O)C(C)C)C(C)C)[C@@H](C)CC)[C@@H](C)OC(=O)[C@H](C(C)C)NC1=O [(4S)-methylhexanoic KF] : 0.175 to 0.35 mg/kg

Let us examine a further case.
### Prompt Give MTD at 5 days for C/C=C1\NC(=O)[C@H](Cc2ccccc2)NC(=O)[C@@H](C(C)C)NC(=O)[C@@H]([C@@H](C)CC)NC(=O)[C@H](NC(=O)[C@H](NC(=O)[C@H](CCCN)NC(=O)[C@H]2CCCN2C(=O)[C@H](NC(=O)[C@@H](NC(=O)[C@@H](NC(=O)[C@H](NC(=O)CCCC(C)C)C(C)C)[C@@H](C)O)C(C)C)C(C)C)[C@@H](C)CC)[C@@H](C)OC(=O)[C@H](C(C)C)NC1=O [5-methylhexanoic KF, reference compound]
### Response 0.175 to 0.35 mg/kg
